Molecular target: T1, full-length Sudan GP (GPFL) (Sudan virus (SUDV), UniProt Q7T9D9 33-650)
T1 construct: also called Sudan GPFL; GP(S)FL
T1 sequence: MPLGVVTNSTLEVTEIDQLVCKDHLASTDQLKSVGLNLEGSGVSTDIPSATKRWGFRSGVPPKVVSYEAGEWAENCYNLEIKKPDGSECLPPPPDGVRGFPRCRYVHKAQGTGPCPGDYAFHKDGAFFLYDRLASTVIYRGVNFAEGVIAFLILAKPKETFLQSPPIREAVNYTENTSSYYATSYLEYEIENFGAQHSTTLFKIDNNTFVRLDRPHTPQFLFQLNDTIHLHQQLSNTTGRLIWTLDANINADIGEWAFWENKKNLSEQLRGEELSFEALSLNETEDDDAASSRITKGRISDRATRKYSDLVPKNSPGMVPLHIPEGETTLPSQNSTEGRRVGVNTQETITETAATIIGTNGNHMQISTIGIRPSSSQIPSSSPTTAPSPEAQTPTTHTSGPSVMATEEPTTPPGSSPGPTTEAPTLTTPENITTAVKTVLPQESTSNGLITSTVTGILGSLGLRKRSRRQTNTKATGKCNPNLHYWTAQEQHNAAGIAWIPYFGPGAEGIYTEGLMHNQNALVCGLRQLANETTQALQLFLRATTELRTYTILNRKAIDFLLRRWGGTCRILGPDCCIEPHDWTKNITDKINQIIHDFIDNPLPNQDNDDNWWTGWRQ
Assay: BLI, Fab, pH 7.4
pKd: −log10 of the molar value.
property.name: pKd

[[record]]
binder = "Fab generated from 335S (Fab, V domains shown, also called 335S Fab) VH: EVQLVESGGGVVQPGRSLRLSCAASGFSFSNYAMHWVRQAPGKGLEWVAVTWYDGSSKYHADSVKGRFTISRDNSKNTLYLQMNSLRAEDTAVYYCARWGMGIVASPGNVLNYYYFMDVWGQGTTVIVSS VL: SYELTQPPSVSVSPGQTARITCSGNPLPKKHTYWYQQKPGQAPVLMIYKDSERPSRIPERFSGSSSGTTVTLTISGVQAEDEADYYCQSADSTGIVVFGGGTKLTVL"
property_name = "pKd"
value = 8.25

[[record]]
binder = "Fab generated from 315S (Fab, V domains shown, also called 315S Fab) VH: EVQLVESGGGVVQPGRSLRLSCAASGFTFKTYTMHWVRQAPGKGLEWVAVITDDGVNKKYADSVKGRFTISRDNSKNTLYLQMNSLRLEDTAVYYCARSVVVLAAYPLDYWGQGTMVTVSS VL: DIQMTQSPSSLSASVGDRVTITCRASQTISTYLHWYQQRPGKAPKLLIYAASSLQSGVPSRVSGSGSGTDFTLTITSLQPEDFATYYCLQTYSLPLTFGGGTNVEIK"
property_name = "pKd"
value = 8.08

[[record]]
binder = "Fab generated from 203S (Fab, V domains shown, also called 203S Fab) VH: QVQLVQSGAEVKKPGSSVKVSCKASGGTFSSYAISWVRQAPGQGLEWLGRILPALGLANYAQKYQDRVKITADKSTSTAYMELSRLGSEDTAVYYCARDRWVGAARRGQYFDYWGQGTQVTVSS VL: DIQMTQSPATLSASVGDRVTITCRASQSIGTWLAWYQQKPGKAPKLLIYDASSLESGVPPRFSGSGSETEFTLTISSLQPDDFATYYCHQYKSYSYTFGQGTKLEIK"
property_name = "pKd"
value = 7.58

